test: Drug transport experiments, Caco-2 monolayer; format: in vitro ADME; settings: human, Caco-2, apical-basolateral, 1 × 10^−4 M
READOUT_TYPE: Papp A→B at 120 min (×10⁻⁶ cm/s)
Numbers only; they are read as ×10⁻⁶ cm/s.

`COc1ccc2c3c([nH]c2c1)C(C)=NCC3` yielded Papp A→B at 120 min of 49.6

* * *

experiment: Drug transport experiments, Caco-2 monolayer; assay type: in vitro ADME; settings: human, Caco-2, basolateral-apical, 1 × 10^−4 M
READOUT_TYPE: Papp B→A at 120 min (×10⁻⁶ cm/s)
Numbers only; they are read as ×10⁻⁶ cm/s.

`COc1ccc2c3c([nH]c2c1)C(C)=NCC3` yielded Papp B→A at 120 min of 254
